Can you tell me growth for the items I'm about to list?
- System: IGROV1 ovarian
- protocol_notes: NCI-60 one-dose screen, 48 h (100 = growth as untreated, 0 = no growth, -100 = all killed)
- test_conditions: 10 µM unless noted
Compounds without any hit were thinned out: in the full panel of roughly 83,000, 20% have a hit.
Your answer should be a plain number; it is taken to be in %.

Q: // growth lookup, key: COc1cc(C2C3=C(COC3=O)N(CCO)c3cc4c(cc32)CCC4)cc(OC)c1OC (configuration not stated)
A: 8.46

Q: Which growth reading was recorded for the compound `CN(C)CCC(=O)c1ccc([N+](=O)[O-])cc1` ?
A: 109

Q: # lookup: growth of `CN[C@@H](C)C(=O)N[C@H]1CCS[C@H]2CC(C)(C)[C@@H](C(=O)N[C@H]3c4ccccc4C[C@H]3OCC#CC#CCO[C@@H]3Cc4ccccc4[C@@H]3NC(=O)[C@H]3N4C(=O)[C@@H](NC(=O)[C@H](C)NC)CCS[C@H]4CC3(C)C)N2C1=O`
A: 116

Q: Tell me the measured growth of `CC1(C)CC[C@]23CC[C@]4(C)[C@H](CC[C@@H]5[C@@]6(C)CCCNC(C)(C)[C@@H]6CC[C@]54C)[C@H]2[C@H]1OC3` , please.
A: -58.7

Q: Look up growth: `Oc1ccc(OCCOc2ccc(O)cc2)cc1`
A: 71.4

Q: Tell me the measured growth of `COc1cc(/C=C\c2cc(OC)c(OC)c(OC)c2)cc(N)c1OC` , please.
A: 74.6

Q: # growth lookup, item `CCOC(=O)C1=C(C)NC(SCc2cc(=O)oc3ccc(F)cc23)=N[C@@H]1c1cccc2ccccc12`
A: 99.4

Q: What value of growth has been reported for the following compound? `NC1=NN=C(N)C1=Cc1cc2ccccc2n2nnnc12`
A: 103

Q: Item `Cc1cc(C)c(S(=O)(=O)Oc2ccccc2[N+](=O)[O-])c(C)c1` has what recorded growth?
A: 30.2

Q: Could you share which growth value was measured for `COc1cc2oc(-c3cccc(C(=O)Nc4ccc5c(c4)OCO5)c3)cc(=O)c2c(O)c1OC` ?
A: 81.6

Q: Given the compound `CCOC(=O)/C(C#N)=C1/NNC(=Nc2cccnc2)S1` , what is its reported growth?
A: 111

Q: # lookup: growth of `O=C1c2ccc3c4c(ccc(c24)C(=O)N1CCCNCc1ccccc1Cl)C(=O)N(CCCNCc1ccccc1Cl)C3=O`
A: -34.1

Q: Return reported growth; argument: `CCCCCCCCOc1ccc(/C=N/Nc2cc(C)nc3ccc(Br)cc23)cc1`
A: 62.5

Q: What value of growth has been reported for the following compound? `C=C(C)[C@@H]1CC[C@]2(C(=O)N3CCN(C)CC3)CC[C@]3(C)[C@H](CC[C@@H]4[C@@]5(C)CC[C@H](O)C(C)(C)[C@@H]5CC[C@]43C)[C@@H]12`
A: -72.6

Q: What does the data say about its growth? Entry: `COc1ccc(C(=O)NNc2nc(Cl)nc(N3CCN(C(c4ccccc4)c4ccccc4)CC3)n2)cc1`
A: -59.7

Q: I am curious: what growth value has been reported for `COc1ccc(-c2[nH][nH]c(=O)c2-c2nc3ccccc3s2)cc1` ?
A: 105

Q: Name the recorded growth for CCN(CC)CCCC(C)Nc1cc(O)cc2cccnc12 (configuration not stated) .
A: 154

Q: Could you share which growth value was measured for `Oc1c(Cl)cc(Cl)c(Cl)c1CNCCNCc1c(O)c(Cl)cc(Cl)c1Cl` ?
A: 16.4

Q: Request the reported growth associated with `O=C1Nc2ccccc2/C1=C\c1c(-c2ccccc2)nc2ccccn12`
A: 46.3

Q: Value lookup for growth; key = `O=C(Nc1cccc(C(=O)N2CCc3ccc(Cl)cc32)c1)c1ccco1`
A: 31.1

Q: Would you kindly share the measured growth for `COc1ccc(C(C)=O)c(OC)c1` ?
A: 127

Q: Item under review: `COc1ccc(/C=C/c2nc(Nc3ccc(S(=O)(=O)Nc4cc(C)on4)cc3)c3ccccc3n2)cc1` . Reported growth?
A: 78

Q: Please report the recorded growth for `CCOC(=O)c1cc(C(=O)c2ccc(OC)cc2)n2ccc(/C=C/c3cc[n+](CC(=O)c4ccc(OC)cc4)cc3)cc12` .
A: 63.1

Q: I have this compound here, `O=C(NCCc1ccccc1)Nc1ccc2cc3ccc(NC(=O)NCCc4ccccc4)cc3nc2c1` , and I need its recorded growth.
A: 48.2

Q: Could you share which growth value was measured for `O=C(NCCNc1nccc(-c2c(-c3cccc(F)c3)nc3sccn23)n1)c1ccc(Cl)cc1` ?
A: 22.5

Q: Recorded growth of `CCCOC(=O)N[C@H]1CCc2c(Cl)c(OC)c(OC)c(OC)c2-c2ccc(SC)c(=O)cc21` , please.
A: 11.7

Q: Consider the compound shown here: `O=C1Nc2cc(-c3ccc(NS(=O)(=O)c4ccccc4)cc3)ccc2/C1=C/c1ccc[nH]1` What is its recorded growth?
A: 93.1

Q: Any idea what its growth is? The compound is NC1[C@H](c2c[nH]c3ccccc23)c2c([nH]c3ccccc23)[C@H]1c1c[nH]c2ccccc12 (some centres not stated)
A: 63.9

Q: Requested read-out: growth. Entry: Cc1ccc(C(=O)/C(=C\c2ccc([N+](=O)[O-])cc2)S(=O)Cc2ccc(F)cc2)cc1 (configuration not stated)
A: -16.8

Q: Tell me the measured growth of N#CC1C(C#N)C(C(=O)c2ccc(Br)cc2)N2c3ccccc3C=CC12 (configuration not stated) , please.
A: 39.7

Q: Requested read-out: growth. Entry: `COc1cc(/C=C\c2cc(/C=C\c3ccc(O)c(OC)c3)n(C(=O)COc3ccccc3)n2)ccc1O`
A: 8.43

Q: Looking for the measured growth of `O=[N+]([O-])c1ccc(N=Nc2cc(S(=O)(=O)O)c3cccc(S(=O)(=O)O)c3c2O)cc1` , can you help?
A: 72.8

Q: Name the reported growth value associated with the compound `O=S(=O)(NCCNc1nccc(-c2c(-c3cccc(O)c3)nc3occn23)n1)c1ccc(C(F)(F)F)cc1`
A: 73.8

Q: # input compound: `Cn1cc(-c2nc(-c3c[nH]c4c(Cl)nccc34)cs2)c2cc(Br)ccc21` ; wanted: its growth
A: 102

Q: Return reported growth; argument: `Cc1ccc(-c2csc(NC(=O)CSc3nc(-c4ccccc4)cc(=O)[nH]3)n2)cc1`
A: 77.2

Q: What value of measured growth is listed for `Nc1n[nH]c2cccc(C#Cc3cccc(C(=O)Nc4cccc(C(F)(F)F)c4)c3)c12` ?
A: 30.3

Q: Which measured growth value corresponds to `COc1cc(F)c(/C=C/c2cc(/C=C/c3cc(OC)c(OC)cc3F)on2)cc1OC` ?
A: 79.5

###

- System: NCI-H522 lung
- protocol_notes: NCI-60 one-dose screen, 48 h (100 = growth as untreated, 0 = no growth, -100 = all killed)
- test_conditions: 10 µM unless noted
The panel holds about 83,000 compounds, 20% with a hit somewhere; the sample as a whole holds those more often.
Consider the following compounds; for each one, report its growth.
Reply with just the number (in %).

Q: Quick one: growth for `COc1ccc(/C=C2\Oc3cc(OCCCCCN4CCCCC4)ccc3C2=O)cc1OC` ?
A: 89.9

Q: For `O=C(O)c1ccc(-c2nn(-c3ccc(C(F)(F)F)cc3)cc2CNc2ccc(Oc3ccccc3)cc2)cc1` , what is its reported growth?
A: 80.2

Q: # query: growth of entry COC(=O)C(CC=O)C(=O)C(=O)Nc1cccc(C(F)(F)F)c1 (stereo not given)
A: 87.2

Q: Query: growth; subject: O=C(c1ccccc1)N1N=C(c2ccc(-n3ccc(C(F)(F)F)n3)c(F)c2)CC1c1ccc[nH]1 (stereo not given)
A: 89.9

Q: Could you share which growth value was measured for `Nc1c(S(=O)(=O)O)cc2c3c(cccc13)C(=O)OC2=O` ?
A: 104

Q: # growth lookup, item O=C1OC(Cc2ccccc2)C1c1ccccc1 (stereo not given)
A: 89.7

Q: Which growth reading was recorded for the compound `CCOc1cccc(-c2nc(N)nc(Nc3ccccc3SSc3ccccc3Nc3nc(N)nc(-c4cccc(OCC)c4)n3)n2)c1` ?
A: 90.8

Q: For the compound shown here, `O=C1c2ccccc2C(=O)c2c([N+](=O)[O-])ccc(Cl)c21` , give the reported growth.
A: 59.2

Q: Recorded growth for `c1ccc(-c2cn3c(ccc4ccccc43)n2)cc1` , please?
A: 44.5

Q: Which value of growth has been reported for `CCCCCN1C=C/C(=C\C(=O)N(C)c2ccccc2Br)c2ccccc21` in the records?
A: 78.2

###

Please respond with reported growth for every item in the list.
- Tested on: HCC-2998 colon
- protocol_notes: NCI-60 one-dose screen, 48 h (100 = growth as untreated, 0 = no growth, -100 = all killed)
- test_conditions: 10 µM unless noted
- Experimental: Growth inhibition of the HCC-2998 human tumor cell line is measured as a screen for anti-cancer activity. Cells are grown in 96 well plates and exposed to the test compound for 48 hours. Compounds are tested at a single concentration, which is 10^-5 M for most compounds. The reported endpoint is percent growth (GI% or GIPRCNT), where numbers from 0 - 100% represent growth inhibition, and numbers from -100% - 0 represent cell death. For example, a value of 40 represents 60% growth inhibition. […]
This is part of a sample that, as a whole, favours compounds with a hit. Of some 83,000 tested, about 20% had one in any assay.
The reply should be a number in %, with the unit left off.

Q: // query growth value for entry `O=C(Cn1c(C(=O)c2ccccc2)nc2ccccc21)c1ccc(F)cc1`
A: 50.1

Q: # growth lookup, item `COc1cc(/C=C\C(=O)O)ccc1OCc1ccccc1`
A: 104

Q: Given `CC[C@]12C=CCN3CC[C@@]4(c5cc(NC(=O)CCC(=O)O[C@H]6CC[C@H]7[C@@H]8CCC9=CC(=O)CC[C@@H]9[C@H]8CC[C@]67C)c(OC)cc5N(C)[C@H]4[C@@](O)(C(=O)OC)[C@@H]1OC(C)=O)[C@@H]32` , state its recorded growth.
A: 91.9

Q: Requested field: growth. Item: `CCCCCCCCOc1ccc(/C=N/Nc2cc(C)nc3ccc(Br)cc23)cc1`
A: 89.8

Q: Look at this compound and give its reported growth. `O=C(CCN1CCCC1)c1ccc([N+](=O)[O-])cc1`
A: 94.8

Q: For the compound shown here, `Fc1ccc2c(-c3cncn3CCc3ccccc3)c[nH]c2c1` , give the reported growth.
A: 102

Q: Quick check: growth of `C[C@H]1[C@H]2[C@H]3CC[C@@H]4[C@@]5(C)CC[C@H](O)C(C)(C)[C@@H]5CC[C@@]4(C)[C@]3(C)CC[C@]23CO[C@]1(C)[C@@H](C(=O)/C=C\c1ccco1)C3` ?
A: 104

Q: Report growth for `COc1ccc(/C=C2\Oc3cc(OCCCCCN4CCCCC4)ccc3C2=O)cc1OC` please.
A: 94.7

Hey, just so you know, these numbers are from PubChem BioAssay (NCI).
